- experimentalDetails: Aqueous solubility of compound at pH 7
- Format: physicochemical

[
  {
    "structureAsSmiles": "CS(=O)(=O)O.C[C@H](N)C(=O)OC1CCN(c2c(F)cc3c(=O)c(C(=O)O)cn4c3c2CC[C@@H]4C)CC1",
    "solubility": "< 1 mg/mL"
  },
  {
    "structureAsSmiles": "CC(C)[C@H](N)C(=O)OC1CCN(c2c(F)cc3c(=O)c(C(=O)O)cn4c3c2CC[C@@H]4C)CC1.CS(=O)(=O)O",
    "solubility": "> 200 mg/mL"
  },
  {
    "structureAsSmiles": "CC(C)[C@H](N)C(=O)OC1CCN(c2c(F)cc3c(=O)c(C(=O)O)cn4c3c2CC[C@@H]4C)CC1",
    "solubility": "> 200 mg/mL"
  },
  {
    "structureAsSmiles": "C[C@H]1CCc2c(N3CCC(O)CC3)c(F)cc3c(=O)c(C(=O)O)cn1c23.N=C(N)NCCC[C@H](N)C(=O)O.O.O.O.O",
    "solubility": "< 1 mg/mL"
  }
]
